Reference for the values: PubChem BioAssay (NCI)

Kindly state growth for each of the entries shown.
Test system: NCI-H23 lung
Assay: NCI-60 one-dose screen, 48 h (100 = growth as untreated, 0 = no growth, -100 = all killed)
Details: 10 µM unless noted
About 83,000 compounds went through this panel and 20% of them were active in at least one assay; those are over-represented in the sample as a whole. Calls of active or inactive are those of the source. The calls were made as follows: active = growth percent below 10; inactive = the rest.

Below, 5 compounds whose answers are already recorded.
CN1CCN(C(=O)/C=C/c2ccc([N+](=O)[O-])o2)CC1 ... 98.1% (inactive)
COc1ccc(Cn2cc3c(c2-c2cc(OC)c(OC)c(OC)c2)CCc2c(CO)noc2-3)cc1 ... 38.3% (inactive)
Cc1cc(-c2ccccc2)nc2ccccc12 ... 90.4% (inactive)
COc1ccc(SC2c3ccc(O)cc3Oc3nc(N)c(C#N)c(N)c32)cc1 (stereo unspecified) ... 93.3% (inactive)
COc1ccccc1NC(=O)COc1ccc(/C=C2/Oc3cc4occc4c(OC)c3C2=O)cc1OC ... 97.1% (inactive)

List growth for every entry below, keeping the order given.
1. COc1ccc2c(c1)OC(N)=C(C#N)C2c1ccc(F)c(F)c1 (stereo unspecified)
2. Cc1ccc(-c2nc3c(N=Nc4ccc(S(N)(=O)=O)cc4)c(N)nn3c(N)c2C#N)cc1

Given back:
1. 48.2% (inactive)
2. 43.9% (inactive)

List growth for every entry below, keeping the order given.
1. CN1CCN(CC(O)COc2c(Br)c(Br)c(Br)c3c2OC(C)(C)C3)CC1 (stereo unspecified)
2. O=C(C[n+]1ccccc1Cl)c1ccc2c(c1)CCCC2
3. COc1ccc(Cn2cc(COc3ccc4c5ccnc(C)c5n(CCCc5ccccc5)c4c3)nn2)cc1
4. CCCCCCCCCCCCCCCCNc1ccccc1

Given back:
["82.4% (inactive)", "92% (inactive)", "85.6% (inactive)", "102% (inactive)"]

====

Kindly state growth for each of the entries shown.
System: BT-549 breast
Experiment: NCI-60 one-dose screen, 48 h (100 = growth as untreated, 0 = no growth, -100 = all killed)
Conditions: 10 µM unless noted
This is part of a sample that, as a whole, favours compounds with a hit. Of some 83,000 tested, about 20% had one in any assay. The source made the active and inactive calls. How the source made its calls: active means growth percent below 10; inactive means the rest.

Below, 10 compounds whose answers are already recorded.
CCOC(=O)c1noc2c1CCc1c-2cn(Cc2ccc(OC)cc2)c1-c1cc(OC)c(OC)c(OC)c1 ... 19.6% (inactive)
CN1CCN(Cn2nc(-c3cc(F)c(Cl)cc3Cl)n(/N=C/c3ccc(N(C)C)cc3)c2=S)CC1 ... 67.1% (inactive)
Cc1cc(NC(=O)c2cccc(C(F)(F)F)c2)ccc1-n1ccc2c(NC(=O)c3ccccc3)nccc21 ... 88.7% (inactive)
CCc1cccc(-c2ccccc2)c1 ... 97.1% (inactive)
CCCCNC(=O)Oc1ccc(/C(=C(/CC)Cc2ccccc2)c2ccc(OCCCN(C)C)cc2)cc1 ... 95.4% (inactive)
CO[C@H]1/C=C/C=C/C=C/C[C@H](OC(=O)[C@@H](C)NC(=O)C2CCCCC2)[C@H](C)[C@@H](O)/C(C)=C\CCC2=CC(=O)C=C(NC(=O)C1)C2=O ... -19.6% (active)
CCC(C)Nc1ccc(N)cc1 (centres undefined) ... 31.7% (inactive)
CCn1cc(/C=C2\Oc3cc(OCC#N)ccc3C2=O)c2cc(OC)ccc21 ... 52.6% (inactive)
NS(=O)(=O)c1ccc(CCN2C(=O)/C(=C\c3ccc(Cl)cc3)C=C2c2ccc(Oc3ccccc3)cc2)cc1 ... 92.2% (inactive)
O=C(Nc1cccc(-n2ccc3c(NC(=O)c4ccccc4)nccc32)c1)c1cc(N2CCOCC2)cc(C(F)(F)F)c1 ... -13.1% (active)

List growth for every entry below, keeping the order given.
1. COc1ccc(-c2nnc(SCC(=O)Nc3ccc(C(=O)/C=C/c4ccccc4)cc3)o2)cc1OC
2. CN1C(=O)C2(NN=C(c3cccc4ccccc34)S2)c2ccccc21 (centres undefined)
3. COc1ccc(SC2c3ccc(O)cc3Oc3nc(N)c(C#N)c(N)c32)cc1 (centres undefined)
4. COc1ccc(C(=O)NC(=O)Nc2ccc3c(c2)NC(=O)/C3=C\c2[nH]c(C)c(CCC(=O)O)c2C)c(F)c1
5. O=C(Nc1ccc(-n2ccc3c(NC(=O)c4ccccc4)nccc32)cc1)c1cccc(C(F)(F)F)c1
6. CCc1c(C)c2cc(-n3c(-c4ccc(OC)cc4)csc3=N)c(O)c(C)c2oc1=O
7. CN(C)c1ccc(/C=N/n2c(-c3cc(F)c(Cl)cc3Cl)nn(CN3CCOCC3)c2=S)cc1
8. Nc1ncnc2c1ncn2C1OC(COC(c2ccccc2)(c2ccccc2)c2ccccc2)C(O)C1O (centres undefined)

Given back:
1: 98.3% (inactive); 2: 30.1% (inactive); 3: 30.7% (inactive); 4: 11.2% (inactive); 5: 29% (inactive); 6: 5.21% (active); 7: 91.3% (inactive); 8: 94% (inactive)

Asked: Report growth on BT-549 breast for this entry: `COc1ccc(CCNC=O)cc1OC`
Given back: 96.1% (inactive)

====

Kindly state growth for each of the entries shown.
Test system: OVCAR-8 ovarian
Test: NCI-60 one-dose screen, 48 h (100 = growth as untreated, 0 = no growth, -100 = all killed)
Conditions: 10 µM unless noted
The panel holds about 83,000 compounds, 20% with a hit somewhere; the sample as a whole holds those more often.
Numbers only, in %.

List growth for every entry below, keeping the order given.
1. CC[C@H]1[C@@H]2C=C[C@@H]3[C@H]4C/C=C\C(=O)NCCC[C@@H]5NC(=O)/C(=C(O)/C=C/[C@@H]4C[C@@H]3[C@H]2C[C@H]1C)C5=O
2. COc1cc2ncnc(Oc3ccc(NC(=O)Nc4ccc(CN5CCOCC5)c(C(F)(F)F)c4)c4ccccc34)c2cc1OC

Given back:
-54.8
18.9

List growth for every entry below, keeping the order given.
1. C=C1C(=O)O[C@H]2[C@H]1CC/C(COC(=O)c1cc(OC)c(OC)c(OC)c1)=C\CC[C@@]1(C)O[C@@H]21
2. CCCCOc1c(N)cccc1C(=O)OCCN(CC)CC

Given back:
[-45.7, 92.8]

====

System: K-562 leukemia
Experiment: NCI-60 one-dose screen, 48 h (100 = growth as untreated, 0 = no growth, -100 = all killed)
Conditions: 10 µM unless noted
Method: Cells are grown in 96 well plates and exposed to the test compound for 48 hours. Compounds are tested at a single concentration, which is 10^-5 M for most compounds. The reported endpoint is percent growth (GI% or GIPRCNT), where numbers from 0 - 100% represent growth inhibition, and numbers from -100% - 0 represent cell death. For example, a value of 40 represents 60% growth inhibition. A value of 0 means no net growth occurred over the course of the experiment. […]
Compounds without any hit were thinned out: in the full panel of roughly 83,000, 20% have a hit.
Criterion: growth meeting or surpassing 30%. Met: yes (1). Not met: no (0).

Record excerpt, results attached:
C#CC(=O)/C=C/CCCCCCC#CC(=O)CCC(=O)C#CCCCCCC/C=C/C(=O)C#C ... no (0)
O=c1c2ccccc2sc2c(NCCCNCCO)nc3ccccc3c12 ... no (0)
Cc1[nH]c2ccc(F)cc2c1CCNC(=O)C1CCN(C(=O)c2ccc(-c3ccccc3)cc2)CC1 ... no (0)
O=C1CCC(=O)N1C1CCCCC1 ... yes (1)

Asked: Hi, just wondering whether `CN(C)c1ccc(/C=N/n2c(-c3cc(F)c(Cl)cc3Cl)nn(CN3CCOCC3)c2=S)cc1` shows growth of 30% or higher.
Given back: yes (1)

Asked: Hi, just wondering whether `O=C(Nc1ccc(-n2ccc3c(NC(=O)c4ccccc4)nccc32)cc1)Nc1ccc(Cl)c(Cl)c1` shows growth of 30% or higher.
Given back: no (0)

Asked: Hi, just wondering whether CC1CCC(C(C)C)C(NN)C1 (stereo not given) shows growth of 30% or higher.
Given back: yes (1)

Asked: Hi, just wondering whether `CCCCCCCCCCCCCCCC(=O)NS(=O)(=O)OC[C@H]1O[C@@H](n2cnc3c(N)ncnc32)[C@H](O)[C@@H]1O` shows growth of 30% or higher.
Given back: no (0)

Asked: Hi, just wondering whether `CCNc1cc(S(=O)(=O)O)ccc1C` shows growth of 30% or higher.
Given back: yes (1)

Asked: Hi, just wondering whether `O=C(Nc1ccc(-n2cc(-c3ccncc3)c(-c3ccc(O)c(Cl)c3)n2)cc1)Nc1ccc(Cl)c(C(F)(F)F)c1` shows growth of 30% or higher.
Given back: no (0)

Asked: Hi, just wondering whether `Cc1ccc2nc(-c3ccc(-n4on4-c4ccc(/C=C/c5ccc(-n6on6-c6ccc(-c7nc8ccc(C)cc8s7)cc6)cc5S(=O)(=O)O)c(S(=O)(=O)O)c4)cc3)sc2c1` shows growth of 30% or higher.
Given back: yes (1)

Asked: Hi, just wondering whether CC(C)(C)NCC(O)COc1c(Br)c(Br)c(Br)c2c1OC(C)(C)C2 (stereo not given) shows growth of 30% or higher.
Given back: no (0)

Asked: Hi, just wondering whether `COc1ccc(-c2nn(-c3ccc(NC(=O)c4cc(C(F)(F)F)cc(C(F)(F)F)c4)cc3)cc2-c2ccncc2)cc1Cl` shows growth of 30% or higher.
Given back: no (0)

Asked: Hi, just wondering whether `O=C(O)c1ccccc1C(=O)c1ccc(I)cc1` shows growth of 30% or higher.
Given back: yes (1)

Asked: Hi, just wondering whether CC(CN(C)C)CN1c2ccccc2CCc2ccccc21 (stereo not given) shows growth of 30% or higher.
Given back: yes (1)

Asked: Hi, just wondering whether `COc1ccc(-c2cc(-c3nnc(SC/C(=N\O)c4ccccc4)n3-c3ccccc3)c3ccccc3n2)cc1` shows growth of 30% or higher.
Given back: yes (1)

Asked: Hi, just wondering whether `Oc1ccc(Cl)cc1Sc1cc(Cl)ccc1O` shows growth of 30% or higher.
Given back: yes (1)

Asked: Hi, just wondering whether `CCOC(=O)NNc1nncc2ccccc12` shows growth of 30% or higher.
Given back: yes (1)

Asked: Hi, just wondering whether `CCOC(=O)CSc1nnc(-c2cc3c([nH]c4ccccc43)c(-c3cccc(O)c3)n2)n1-c1ccc(C)cc1` shows growth of 30% or higher.
Given back: no (0)

Asked: Hi, just wondering whether `O=C(NCCNc1nccc(-c2c(-c3cccc(O)c3)nc3sccn23)n1)c1ccccc1O` shows growth of 30% or higher.
Given back: yes (1)
